Listing of entries alongside the reported IC50.
Molecular target: full length active recombinant SYK enzyme (Homo sapiens, UniProt P43405)
Construct: full length active recombinant SYK enzyme (Millipore, Calif.)
Test: Inhibition of Syk tyrosine phosphorylation activity (LANCE TR-FRET kinase assay)
Method: Inhibition of Syk Tyrosine Phosphorylation Activity Potency of candidate molecules for inhibiting Syk tyrosine phosphorylation activity is assessed by measuring the ability of a test compound to inhibit Syk-mediated tyrosine phosphorylation of a Syk-specific substrate. SYK tyrosine phosphorylation activity is measured using the LANCE™ Technology developed by Perkin Elmer Life and Analytical Sciences (Boston, Mass.). […]

> print(dat)
                                   compound                              assay.system      meas.value
1  C[C@H](CN)Nc1nc(Nc2cccc(-n3nccn3)c2)c(C(N)=O)cc1C#N  full length active recombinant SYK enzyme (Homo sapiens, UniProt P43405)  0.01 to 0.1 µM

Dear colleague, I am looking for the recorded IC50 of the following compound: CC[C@@H](Nc1nc(Nc2ccc(C3CC[N+](C)([O-])CC3)cc2)c(C(N)=O)cc1F)C(N)=O (stereo partly shown)
0.1 to 1 µM

Check NC(=O)c1cc(F)c(N[C@@H]2CCCC[C@@H]2N)nc1Nc1cccc(-n2cccc2)c1 too.
0.001 to 0.01 µM

Check NC(=O)c1cc(F)c(NC2(C(N)=O)CCCC2)nc1Nc1cnc2ccccc2c1 too.
0.1 to 1 µM

Check Cc1cc(Nc2cc(N[C@@H](C(N)=O)C3CC3)ccc2C(N)=O)sn1 too.
0.01 to 0.1 µM

Check NC(=O)c1cc(F)c(N[C@@H]2CCCC[C@@H]2N)nc1Nc1csc2ccncc12 too.
0.01 to 0.1 µM

Check Cn1ncc2cc(Nc3nc(N[C@@H]4CCCC[C@@H]4N)ccc3C(N)=O)ccc21 too.
0.001 to 0.01 µM

Check N#Cc1cc(C(N)=O)c(Nc2ccc3[nH]ncc3c2)nc1N[C@@H]1CCCC[C@@H]1N too.
0.001 to 0.01 µM

Check NC(=O)c1cc(F)c(N[C@@H]2CCCC[C@@H]2N)nc1Nc1cnc2cccnc2c1 too.
0.001 to 0.01 µM

Check Cc1ccc(Nc2nc(NC[C@@H](N)CC(F)F)c(F)cc2C(N)=O)cc1 too.
0.1 to 1 µM

Check NC(=O)c1cc(F)c(N[C@@H]2CCCC[C@@H]2N)nc1Nc1cncc(-n2ccnc2)c1 too.
0.01 to 0.1 µM

Check NC(=O)c1ccc(N[C@H](CC2CC2)C(N)=O)nc1Nc1ccc2ncccc2c1 too.
0.001 to 0.01 µM

Check Cc1cc(Nc2cc(N[C@H](CO)C(N)=O)ccc2C(N)=O)sn1 too.
0.1 to 1 µM

Check CC[C@@H](Nc1nc(Nc2cccc(OC)c2)c(C(N)=O)cc1F)C(N)=O too.
0.01 to 0.1 µM

Check NC(=O)c1cc(F)c(N[C@@H]2CCCC[C@@H]2N)nc1Nc1ccncc1 too.
0.01 to 0.1 µM

Check CC(C)C[C@H](CN)Nc1nc(Nc2ccc3ncsc3c2)c(C(N)=O)cc1C#N too.
0.001 to 0.01 µM
